# subjectOfTest: STAT6 (Homo sapiens, UniProt P42226)
# Construct: stably transfected HaCaT keratinocyte cell line, which expresses NanoLuc luciferase reporter gene under the transcriptional control of the STAT6 responsive promoter; endogenous in cells; host or cells: HaCaT keratinocyte reporter cell line (stably transfected with a NanoLuc reporter)
# Sequence (P42226 1-847): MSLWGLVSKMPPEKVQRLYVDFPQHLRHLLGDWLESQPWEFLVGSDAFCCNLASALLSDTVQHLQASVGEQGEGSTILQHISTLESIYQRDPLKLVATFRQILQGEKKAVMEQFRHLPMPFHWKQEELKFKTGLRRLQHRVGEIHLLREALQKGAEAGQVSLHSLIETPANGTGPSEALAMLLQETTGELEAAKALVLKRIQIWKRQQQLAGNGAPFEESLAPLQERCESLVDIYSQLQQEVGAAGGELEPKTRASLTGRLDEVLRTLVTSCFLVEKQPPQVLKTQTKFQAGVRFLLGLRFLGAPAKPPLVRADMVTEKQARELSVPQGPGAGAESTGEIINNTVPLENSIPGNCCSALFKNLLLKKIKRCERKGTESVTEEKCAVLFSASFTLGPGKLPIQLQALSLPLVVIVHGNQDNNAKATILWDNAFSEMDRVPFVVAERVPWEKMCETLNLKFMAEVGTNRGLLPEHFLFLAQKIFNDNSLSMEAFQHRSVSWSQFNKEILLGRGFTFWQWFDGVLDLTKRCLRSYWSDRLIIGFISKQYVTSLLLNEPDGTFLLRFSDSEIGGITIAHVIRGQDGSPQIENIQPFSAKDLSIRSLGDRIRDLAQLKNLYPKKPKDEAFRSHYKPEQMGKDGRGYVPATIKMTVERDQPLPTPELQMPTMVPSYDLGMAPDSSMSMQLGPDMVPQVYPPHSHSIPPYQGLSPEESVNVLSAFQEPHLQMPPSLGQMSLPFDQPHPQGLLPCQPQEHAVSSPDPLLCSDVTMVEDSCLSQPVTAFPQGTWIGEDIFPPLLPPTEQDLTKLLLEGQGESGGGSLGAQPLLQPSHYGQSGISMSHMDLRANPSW
# assaySummary: STAT6 Reporter Luciferase Assay (IL-13 stimulated HaCaT keratinocyte NanoLuc reporter cells)
# Format: cell-based
# conditionSummary: IL-13 stimulated HaCaT STAT6 NanoLuc reporter cells; read-out: Reporter EC50
Quick list: pEC50 per entry.
Quick note: pEC50 values are minus log10 of concentrations in mol/L.

Example entries and their recorded answers appear below.
{"columns": ["molecule", "pEC50"],
 "data": [
  ["CC(C)n1nc(C(=O)NCc2ccc(NC(=O)N(C)C)cc2)c2c1CCN(c1ccc(C(=O)N3CCc4ncsc4C3)cn1)C2", 7.85],
  ["C[C@@H]1CN(c2ccc(C(=O)N(C)C)cn2)Cc2c(C(=O)NCc3ccc(NC(=O)N(C)C)cc3)nn(C3CCC3)c21 (single isomer, unassigned)", 7.82],
  ["CC(C)n1nc(C(=O)NCc2ccc(NC(=O)N(C)C)cc2)c2c1CCN(c1ccc(C3CCCO3)cn1)C2 (single isomer, unassigned) [Example 361]", 6.80],
  ["CC(C)n1nc(C(=O)NCc2ccc(NC(=O)N3CC[C@@H](CN(C)C)C3)c(F)c2)c2c1[C@@H](C)CN(c1ccc(C(=O)N(C)C)cc1)C2", 8.52],
  ["CC(C)n1nc(C(=O)NCc2ccc(-c3cnn(C)c3)cc2)c2c1[C@@H](C)CN(c1ccc(C(=O)N(C)C)cc1)C2", 7.06]
]}

Lookup result for CC(C)n1nc(C(=O)NCc2ccc(NC(=O)N(C)C)cc2)c2c1CCN(c1ccc(C3CCCCO3)cn1)C2 (racemic) [Example 339] ; measured pEC50: 5.18

Lookup result for C[C@H]1CN(c2ccc(C(=O)N(C)C)cn2)Cc2c(C(=O)NCc3ccc(NC(=O)N(C)C)cc3)nn(C3CCOCC3)c21 (single isomer, unassigned) ; measured pEC50: 8.70
